Recorded values, source patent US20140349989A1.

- Assay comment: Cytotoxicity Assay (HCT116, CellTiter-Glo)
- Type: cell-based
- Condition description: human, HCT116 cells, 72 hours drug incubation, CellTiter-Glo luminescence; read-out: HCT116 cell cytotoxicity IC50
Measurement type: IC50 at 72 h

Use the examples below as a reference point.
CN1CCN(C(=O)Cc2cn(-c3ccc(NC(=O)NCc4cccnc4)cc3)c3ccccc23)CC1 [Compound 101]; < 100 nM
O=C(CCc1ccc(-n2cc(CCN3CCOCC3)c3ccccc32)cc1)NCc1cccnc1 [Compound 180]; < 100 nM
CCN(CC)CCc1cn(-c2ccc(/C=C/C(=O)NCc3cccnc3)cc2)c2ccccc12 [Compound 162]; < 100 nM
Cc1c(Cc2ccccc2)c(C(=O)N2CCC(N3CCCCC3)CC2)nn1-c1ccc(NC(=O)NCc2cccnc2)cc1 [Compound 46]; < 100 nM

We next turn to a different compound, shown below.
[ask] For the compound O=C(NCc1cccnc1)Nc1ccc(-n2c(Cl)c(C(=O)N3CCN(C4CCCCC4)CC3)c3ccccc32)cc1 [Compound 70] , give its reported IC50 at 72 h.
[reply] < 100 nM

====

Consider the following molecules and their measured IC50 at 72 h readings.
- Assay comment: Cytotoxicity Assay (HCT116, CellTiter-Glo)
- Type: cell-based
- Condition description: human, HCT116 cell cytotoxicity IC50
- Method: HCT116 cells were seeded in 96 well plates (Greiner Bio-One, Monroe, N.C.) and allowed to settle overnight. Test compound dissolved in dimethyl sulfoxide (DMSO) was added and drug incubation proceeded for 72 hours. […] After a proscribed incubation period, luminescence was measured using a TopCount NXT plate reader (PerkinElmer, Waltham, Mass.).

O=C(NCc1cccnc1)Nc1ccc(-n2cc(C(=O)NCCCN3CCCC3)c3ccccc32)cc1; ~8 nM
Cc1c(C(=O)N2CCC(n3ccnc3)CC2)c2ccccc2n1-c1ccc(NC(=O)NCc2cccnc2)cc1; ≥ 100 nM
CC(C)(C)OC(=O)N1CCC(n2cc(CCCCCCNC(=O)NCc3cccnc3)c3ccccc32)CC1; ≥ 100 nM
CCOCCOCCN1CCC2(CC1)CN(c1ccc(NC(=O)NCc3cccnc3)cc1)c1ccccc12; ≥ 100 nM
O=C(NCc1cccnc1)Nc1ccc(-c2nn(C3CN(C4CCCC4)C3)c3ccccc23)cc1; ~1 nM
O=C(NCc1ccc(Cl)nc1)Nc1ccc(-n2cc(CCN3CCOCC3)c3ccccc32)cc1; < 100 nM
Nc1nn(-c2ccc(NC(=O)NCc3cccnc3)cc2)c2ccccc12; ≥ 100 nM
O=C(NCc1cccnc1)Nc1ccc(-n2cc(C3CCN(CCO)CC3)c3ccccc32)cc1; ≥ 100 nM
Cc1c(-c2ccccc2)c(C(=O)NCCCN2CCCCC2)nn1-c1ccc(NC(=O)NCc2cccnc2)cc1; < 100 nM
O=C(NCc1cccnc1)Nc1ccc(-n2nc(N3CCN(C4CCCC4)CC3)c3ccccc32)cc1; ~1 nM

[ask] Entry Cc1c(Cc2ccc(F)cc2)c(C(=O)N2CCC(N3CCCCC3)CC2)nn1-c1ccc(NC(=O)NCc2cccnc2)cc1 needs its IC50 at 72 h filled in; supply it.
[reply] ≥ 100 nM

[ask] Answer with reported IC50 at 72 h of O=C(NCc1cccnc1)Nc1ccc(-n2nc(C#CCN3CCOCC3)c3ccccc32)cc1
[reply] < 100 nM

[ask] Give reported IC50 at 72 h value for O=C(NCc1cccnc1)Nc1ccc(N2CC3(CCNCC3)c3ccccc32)cc1
[reply] < 100 nM

[ask] State its IC50 at 72 h: O=C(NCc1cccnc1)Nc1ccc(-n2cc(C(=O)N3CCC(N4CCOCC4)CC3)c3cccnc32)cc1
[reply] ~4 nM

[ask] Please give measured IC50 at 72 h of the following entry: O=C(NCc1cccnc1)Nc1ccc(-n2cc(-c3nccn3CCCN3CCCC3)c3ccccc32)cc1
[reply] ≥ 100 nM

[ask] // Input: O=C(/C=C/c1ccc(-n2cc(CCN3CCOCC3)c3ccccc32)cc1)NCc1cccnc1 . Output its IC50 at 72 h only.
[reply] ~7 nM

[ask] Return IC50 at 72 h for the following molecule: O=C(NCc1cncs1)Nc1ccc(-n2cc(CCN3CCOCC3)c3ccccc32)cc1
[reply] ≥ 100 nM

[ask] Input CCOC(=O)c1c(C)n(-c2ccc(NC(=O)NCc3cccnc3)cc2)c2ccccc12 , output reported IC50 at 72 h.
[reply] ≥ 100 nM

[ask] Item O=C(NCc1cccnc1)Nc1ccc(-n2cc(CCN3CCCCC3)c3ccccc32)cc1 : provide IC50 at 72 h
[reply] < 100 nM

====

- Assay comment: Cytotoxicity Assay (HCT116, CellTiter-Glo)
- Format: cell-based
- Condition description: human, HCT116 cells, 72 hours drug incubation, CellTiter-Glo luminescence; read-out: HCT116 cell cytotoxicity IC50
Parameter IC50 at 72 h: see the listing below.

// solved cases for IC50 at 72 h follow
CCOC(=O)c1cn(CCCCCNC(=O)NCc2cccnc2)c2ccccc12 [Compound 65]; < 100 nM
O=C(NCc1cccnc1)Nc1ccc(-n2nc(CC(=O)N3CCCCC3)c3ccccc32)cc1 [Compound 84]; < 100 nM
COC(=O)c1cn(Cc2ccccc2)c2cc(NC(=O)NCc3cccnc3)ccc12 [Compound 83]; ≥ 100 nM
O=C(NCc1cccnc1)Nc1ccc(-n2cc(C(=O)N3CCC(N4CCC(F)(F)CC4)CC3)c3ccccc32)c(Cl)c1 [Compound 107]; < 100 nM
O=C(NCc1cccnc1)Nc1ccc(-n2cc(CCN3CC[C@@H](F)C3)c3ccccc32)cc1 [Compound 38]; < 100 nM

[ask] Give the reported IC50 at 72 h for this compound. O=C(NCc1cccnc1)Nc1ccc(-n2cc([C@H]3CC[C@@H](N4CC(F)(F)C4)CC3)c3ccccc32)cc1 [Compound 94]
[reply] < 100 nM

[ask] Look up and state reported IC50 at 72 h for O=C(NCc1cccnc1)Nc1ccc(-n2cc(-c3nccn3CCN3CCCCC3)c3ccccc32)cc1 [Compound 52]
[reply] < 100 nM

[ask] Identify IC50 at 72 h associated with the compound O=C(NCCCCCn1cc(C(=O)N2CCN(C3CCCCC3)CC2)c2ccccc21)NCc1cccnc1 [Compound 116]
[reply] < 100 nM

[ask] Look up IC50 at 72 h of O=C(NCc1cccnc1)Nc1ccc(-n2cc(C(=O)N3CCN(C4CCCCC4)CC3)c3ccccc32)c(Cl)c1 [Compound 92] and report it.
[reply] < 100 nM

[ask] Quickly give me recorded IC50 at 72 h for O=C(NCc1cccnc1)Nc1ccc2c(c1)c(C(=O)NCCCN1CCOCC1)cn2Cc1ccccc1 [Compound 51]
[reply] ≥ 100 nM

[ask] Using the record for CCN1CCN(C(=O)c2cn(CCCCCNC(=O)NCc3cncs3)c3ccccc23)CC1 [Compound 113] , state its measured IC50 at 72 h.
[reply] < 100 nM

[ask] Complete the entry with IC50 at 72 h for CCOC(=O)c1cn(CCCNC(=O)NCc2cccnc2)c2ccccc12 [Compound 106]
[reply] ≥ 100 nM

====

Reported IC50 at 72 h by item:
- Assay comment: Cytotoxicity Assay (HCT116, CellTiter-Glo)
- Assay type: cell-based
- Condition description: human, HCT116 cells, 72 hours drug incubation, CellTiter-Glo luminescence; read-out: HCT116 cell cytotoxicity IC50

Solved cases below.
O=C(NCc1cccnc1)Nc1ccc(N2CC3(CCN(C4CCCC4)CC3)c3ccccc32)cc1 [Compound 117]; < 100 nM
CN1CCN(C2CCN(C(=O)c3cn(CCCCNC(=O)NCc4cccnc4)c4ccccc34)CC2)CC1 [Compound 115]; < 100 nM
O=C(NCCCn1cc(C(=O)NCCCN2CCCC2)c2ccccc21)NCc1cccnc1 [Compound 59]; ≥ 100 nM
COc1cccc(-c2cn(-c3ccc(NC(=O)NCc4cccnc4)cc3)nc2C(=O)N2CCC(N3CCCCC3)CC2)c1 [Compound 85]; < 100 nM
CC(C)(C)OC(=O)N1CCC(CCn2ccnc2-c2cn(-c3ccc(NC(=O)NCc4cccnc4)cc3)c3ccccc23)CC1 [Compound 87]; < 100 nM
O=C(NCc1cccnc1)Nc1ccc(-n2cc(C3CCN(CCF)CC3)c3ccccc32)cc1 [Compound 99]; < 100 nM
O=C(/C=C/c1ccc(-n2nc(C(=O)N3CCC(N4CCOCC4)CC3)c3ccccc32)cc1)NCc1cccnc1 [Compound 171]; < 100 nM
O=C(NCc1cccnc1)Nc1ccc(-n2cc(-c3nccn3CCC3CCNCC3)c3ccccc32)cc1 [Compound 60]; ≥ 100 nM
CCN1CCN(C(=O)c2cn(-c3ccc(NC(=O)NCc4cccnc4)cc3Cl)c3ccccc23)CC1 [Compound 95]; < 100 nM
O=C(NCCCCCCC1CNc2ccccc21)NCc1cccnc1 (centres unmarked) [Compound 97]; < 100 nM

Could you now look at the following compound, please?
[ask] Given CC1CCCN1CCc1cn(-c2ccc(/C=C/C(=O)NCc3cccnc3)cc2)c2ccccc12 (centres unmarked) [Compound 161] , respond with its IC50 at 72 h.
[reply] < 100 nM
